Parameter: rA1/hA3. Scope: all listed entries.
Molecular target: human recombinant A3 adenosine receptor (Homo sapiens, UniProt P0DMS8)
Assay: Human cloned A3 adenosine receptor binding assay, [125I]AB-MECA, HEK-293 membranes
Set-up: USA; host or cells: HEK-293
Settings: selectivity ratio of Ki values
readout: rA1/hA3

compound	limit qualifier	numeric readout
O=C(Nc1cccc(Cl)c1)Nc1nc2nn(CCCc3ccccc3)cc2c2nc(-c3ccco3)nn12 [Compound 56]	>	234
CC(C)CCn1cc2c(nc(NC(=O)Cc3ccccc3)n3nc(-c4ccco4)nc23)n1 [Compound 58]	=	4.6
CCCn1cc2c(nc(N)n3nc(-c4ccco4)nc23)n1 [Compound 36]	=	0.22
O=C(Cc1ccccc1)Nc1nc2nn(CCCc3ccccc3)cc2c2nc(-c3ccco3)nn12 [Compound 59]	=	2.8
COc1ccc(NC(=O)Nc2nc3nn(CCc4ccccc4)cc3c3nc(-c4ccco4)nn23)cc1 [Compound 55]	=	872

###

Target: human recombinant A3 adenosine receptor (Homo sapiens, UniProt P0DMS8)
Sequence (P0DMS8 1-318): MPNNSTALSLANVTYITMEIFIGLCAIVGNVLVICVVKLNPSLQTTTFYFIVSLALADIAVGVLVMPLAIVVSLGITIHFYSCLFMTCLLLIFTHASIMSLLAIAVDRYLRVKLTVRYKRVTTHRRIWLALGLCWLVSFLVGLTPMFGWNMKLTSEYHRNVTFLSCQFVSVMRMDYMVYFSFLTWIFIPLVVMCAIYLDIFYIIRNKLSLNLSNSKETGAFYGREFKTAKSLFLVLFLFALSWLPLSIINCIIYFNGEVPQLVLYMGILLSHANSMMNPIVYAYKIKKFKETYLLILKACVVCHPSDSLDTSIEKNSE
Test: Human cloned A3 adenosine receptor binding assay, [125I]AB-MECA, HEK-293 membranes
Set-up: USA; host or cells: HEK-293
Details: selectivity ratio of Ki values
Lab note: cut-off is 20. Strictly less in rA1/hA3 is Condition met. Exactly 20 or more is Condition not met.

entry smiles	assigned class
O=C(Nc1cccc(Cl)c1)Nc1nc2nn(CCc3ccccc3)cc2c2nc(-c3ccco3)nn12	Condition not met
COc1ccc(NC(=O)Nc2nc3nn(CCC(C)C)cc3c3nc(-c4ccco4)nn23)cc1	Condition met
Cn1cc2c(nc(N)n3nc(-c4ccco4)nc23)n1	Condition met
CC(C)=CCn1cc2c(nc(NC(=O)Nc3cccc(Cl)c3)n3nc(-c4ccco4)nc23)n1	Condition not met
CC(C)=CCn1cc2c(nc(N)n3nc(-c4ccco4)nc23)n1	Condition met
CCn1cc2c(nc(N)n3nc(-c4ccco4)nc23)n1	Condition met
COc1ccc(NC(=O)Nc2nc3nn(CC=C(C)C)cc3c3nc(-c4ccco4)nn23)cc1	Condition not met

###

Biological target: human recombinant A3 adenosine receptor (Homo sapiens)
Assay: Human cloned A3 adenosine receptor binding assay, [125I]AB-MECA, HEK-293 membranes
Parameters: USA; host or cells: HEK-293
Conditions: selectivity ratio of Ki values
Parameter: rA1/hA3. Scope: all listed entries.

entry smiles	tested on	rA1/hA3
CCCCn1cc2c(nc(N)n3nc(-c4ccco4)nc23)n1	human recombinant A3 adenosine receptor (Homo sapiens)	0.02
COc1ccc(NC(=O)Nc2nc3nn(CCCc4ccccc4)cc3c3nc(-c4ccco4)nn23)cc1	human recombinant A3 adenosine receptor (Homo sapiens)	76.4
